# Assay method text: Toxicity against mouse lymphocytes assessed as cell viability at 50 uM
# Assay type: cell-based, Lymphocyte
# Study conditions: read-out: Activity
Catalogue of viability at 50 µM values

{"Structure smiles string": "CC1=C([C@H](C)CO)C[C@@]2(O)[C@@]3(C)CC(=O)O[C@H]([C@]4(O)[C@H](C)CC[C@@]43O)[C@@]12O", "viability at 50 µM [%]": 105}
{"Structure smiles string": "CC1=C([C@H](C)CO)C[C@@]2(O)[C@@]3(C)CC(=O)O[C@@H]4[C@@H](C)CC[C@@]3(O)[C@@]4(O)[C@@]12O", "viability at 50 µM [%]": 97.8}

Sourced from ChEMBL document CHEMBL3351939
